- System Under Test: Pax5(1-149) Q22A;GABPα(311-430) (human;, UniProt Q02548;Q00422 1-149;311-430, Q22A|)
- Sequence (Q02548 1-149 Q22A, chain 1 of 2): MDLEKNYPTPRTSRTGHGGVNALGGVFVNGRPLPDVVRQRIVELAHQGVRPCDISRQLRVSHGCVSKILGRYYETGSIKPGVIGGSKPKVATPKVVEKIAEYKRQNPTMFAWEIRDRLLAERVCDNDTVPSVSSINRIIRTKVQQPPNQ
- Sequence (Q00422 311-430, chain 2 of 2): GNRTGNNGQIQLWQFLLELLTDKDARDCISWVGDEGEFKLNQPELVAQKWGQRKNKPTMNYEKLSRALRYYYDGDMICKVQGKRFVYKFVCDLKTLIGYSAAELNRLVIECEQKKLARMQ
- Assay Procedure: EMSA
Endpoint Name: Kd (nM)

1. P5-EBS probe (dsDNA) DNA 1: TCGAAGGGCCACTGGAGCCCATCTCCGGCACGGC DNA 2: TCGAGCCGTGCCGGAGATGGGCTCCAGTGGCCCT = 6.14
